SYSTEM_TESTED: panel of 442 kinases (Homo sapiens, UniProt P06213)
Construct: purchased Ambit Biosciences (scanMAXX KINOMEscan)
Sequence (P06213 28-1382): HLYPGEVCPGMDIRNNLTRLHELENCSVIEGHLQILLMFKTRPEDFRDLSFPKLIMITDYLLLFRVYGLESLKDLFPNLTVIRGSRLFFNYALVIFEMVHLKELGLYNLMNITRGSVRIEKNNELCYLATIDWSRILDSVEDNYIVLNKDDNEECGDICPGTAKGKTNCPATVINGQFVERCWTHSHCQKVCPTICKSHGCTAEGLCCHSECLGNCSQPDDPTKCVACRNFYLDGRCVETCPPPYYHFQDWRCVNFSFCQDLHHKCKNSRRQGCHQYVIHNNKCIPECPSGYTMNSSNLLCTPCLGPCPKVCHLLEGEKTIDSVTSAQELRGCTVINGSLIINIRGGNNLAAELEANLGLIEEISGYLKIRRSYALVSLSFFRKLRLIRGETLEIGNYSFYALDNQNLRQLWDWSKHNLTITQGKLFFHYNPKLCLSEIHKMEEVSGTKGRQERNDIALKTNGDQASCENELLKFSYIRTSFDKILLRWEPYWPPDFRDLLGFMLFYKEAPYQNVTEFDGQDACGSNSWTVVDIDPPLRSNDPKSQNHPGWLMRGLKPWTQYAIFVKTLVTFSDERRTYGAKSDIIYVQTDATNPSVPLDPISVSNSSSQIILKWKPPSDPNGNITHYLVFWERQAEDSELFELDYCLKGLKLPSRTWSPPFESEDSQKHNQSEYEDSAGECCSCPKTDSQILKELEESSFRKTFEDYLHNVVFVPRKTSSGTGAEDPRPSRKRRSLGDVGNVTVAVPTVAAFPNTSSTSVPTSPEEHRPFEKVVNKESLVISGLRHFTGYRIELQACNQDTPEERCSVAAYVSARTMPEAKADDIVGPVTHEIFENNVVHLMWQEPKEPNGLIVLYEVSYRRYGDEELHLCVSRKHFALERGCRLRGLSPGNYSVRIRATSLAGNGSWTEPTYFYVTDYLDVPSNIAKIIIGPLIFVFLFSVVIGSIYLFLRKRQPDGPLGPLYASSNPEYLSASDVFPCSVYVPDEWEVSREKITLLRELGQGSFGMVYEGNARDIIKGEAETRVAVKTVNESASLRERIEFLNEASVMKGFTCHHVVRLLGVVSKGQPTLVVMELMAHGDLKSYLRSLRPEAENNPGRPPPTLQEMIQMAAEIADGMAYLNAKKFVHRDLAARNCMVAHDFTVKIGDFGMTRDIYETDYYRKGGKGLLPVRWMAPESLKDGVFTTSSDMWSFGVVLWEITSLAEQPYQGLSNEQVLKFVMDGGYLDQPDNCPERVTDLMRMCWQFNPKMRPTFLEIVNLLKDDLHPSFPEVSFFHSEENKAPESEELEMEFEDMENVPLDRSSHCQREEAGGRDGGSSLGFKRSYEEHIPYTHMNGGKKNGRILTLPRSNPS
TEST_PROTOCOL: biochemical
Type: binding
EXPERIMENTAL_SETUP: kinase INSR; 1 µM; read-out: % of control at 1 µM
ENDPOINT_LABEL: remaining activity at 1 µM (%)
Just the number please, in %, no unit attached.

> print(dat)
                                smiles.data  measured.result
1  Cn1c(=O)n(-c2ccc(C(C)(C)C#N)cc2)c2c3cc(-c4cnc5ccccc5c4)ccc3ncc21               74

Query :: Output measured remaining activity at 1 µM for this item: `Nc1cc(C(F)(F)F)c(-c2cc(N3CCOCC3)nc(N3CCOCC3)n2)cn1`
Result :: 91

Query :: Specify remaining activity at 1 µM for `FC(F)c1nc2ccccc2n1-c1nc(N2CCOCC2)nc(N2CCOCC2)n1` and stop.
Result :: 94

Query :: For `COc1ncc(-c2ccc3nccc(-c4ccnnc4)c3c2)cc1NS(=O)(=O)c1ccc(F)cc1F` , write its remaining activity at 1 µM.
Result :: 92
